- tested-target: T1, human CD40 on cells (human, UniProt P25942 21-277)
- T1 construct: whole, on cells; The cell line used is named in each row's assay; also called hCD40; TNFRSF5
- T1 sequence (P25942 21-277): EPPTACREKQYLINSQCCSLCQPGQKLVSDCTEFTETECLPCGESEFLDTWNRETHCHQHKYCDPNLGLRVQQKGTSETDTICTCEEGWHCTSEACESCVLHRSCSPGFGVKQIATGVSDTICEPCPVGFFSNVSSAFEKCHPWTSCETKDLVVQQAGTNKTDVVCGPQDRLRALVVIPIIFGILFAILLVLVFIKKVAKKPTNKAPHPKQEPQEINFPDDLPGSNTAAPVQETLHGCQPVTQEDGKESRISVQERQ
- protocol-text: FACS, Raji cells
# Maximum MFI per record follows
// units = MFI; emit number, no label

Return reported Maximum MFI; argument: PR006493 (antibody, human IgG1, kappa, V domains shown, PR003379 variant L:N92L; human IgG1 L234A, L235A, G237A) VH: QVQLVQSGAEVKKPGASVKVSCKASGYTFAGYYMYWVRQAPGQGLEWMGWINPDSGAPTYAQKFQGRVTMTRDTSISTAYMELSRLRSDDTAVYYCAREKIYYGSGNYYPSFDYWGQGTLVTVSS VL: DIQLTQSPSFLSASVGDRVTITCRASQGISSYLAWYQQKPGKAPKLLIYAASTLQSGVPSRFSGSGSGTEFTLTISSLQPEDFATYYCQQLLSYPWTFGQGTKVEIKR
9350

Given PR006504 (antibody, human IgG1, kappa, V domains shown, PR003379 variant L:N92V; human IgG1 L234A, L235A, G237A) VH: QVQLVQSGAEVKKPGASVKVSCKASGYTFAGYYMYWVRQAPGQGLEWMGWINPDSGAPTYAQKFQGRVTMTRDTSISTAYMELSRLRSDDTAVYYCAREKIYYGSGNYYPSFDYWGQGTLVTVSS VL: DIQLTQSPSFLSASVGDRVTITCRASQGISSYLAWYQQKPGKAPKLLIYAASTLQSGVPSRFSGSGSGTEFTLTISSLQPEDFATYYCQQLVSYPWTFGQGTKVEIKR , state its recorded Maximum MFI.
12200

I am curious: what Maximum MFI value has been reported for PR006512 (antibody, human IgG1, kappa, V domains shown, PR003379 variant L:S93T; human IgG1 L234A, L235A, G237A) VH: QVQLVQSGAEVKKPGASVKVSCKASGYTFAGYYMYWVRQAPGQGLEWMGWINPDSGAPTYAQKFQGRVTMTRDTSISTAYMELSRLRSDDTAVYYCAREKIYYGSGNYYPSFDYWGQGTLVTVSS VL: DIQLTQSPSFLSASVGDRVTITCRASQGISSYLAWYQQKPGKAPKLLIYAASTLQSGVPSRFSGSGSGTEFTLTISSLQPEDFATYYCQQLNTYPWTFGQGTKVEIKR ?
12100

Further cases:
Quick check: Maximum MFI of PR006500 (antibody, human IgG1, kappa, V domains shown, PR003379 variant L:N92M; human IgG1 L234A, L235A, G237A) VH: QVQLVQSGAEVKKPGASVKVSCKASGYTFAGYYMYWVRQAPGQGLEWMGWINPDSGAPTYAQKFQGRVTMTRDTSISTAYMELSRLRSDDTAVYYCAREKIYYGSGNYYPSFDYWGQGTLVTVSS VL: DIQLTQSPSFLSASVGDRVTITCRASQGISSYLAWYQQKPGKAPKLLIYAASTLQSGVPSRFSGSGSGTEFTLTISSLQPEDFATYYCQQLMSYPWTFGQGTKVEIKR ?
8980

Cited source for all entries: patent US20250215100A1
